This collection of values is drawn from ChEMBL document CHEMBL1135293.

target system: UniProtKB P13497
assay protocol: Inhibitory activity against procollagen C-proteinase (PCP).
Cut-off 500 nM on IC50: below means MET, at or above means NOT MET.

INSERT INTO assay_data (compound_smiles, group_label) VALUES
  ('C=CCOc1ccc2ccc(CN([C@H](Cc3cccs3)C(=O)NO)S(=O)(=O)c3ccc(OC)cc3)cc2c1', 'MET'),
  ('COc1ccc(S(=O)(=O)N(Cc2cccc(C)c2[N+](=O)[O-])[C@H](C)C(=O)O)cc1', 'MET'),
  ('COc1ccc(S(=O)(=O)N(Cc2ccc(F)c(F)c2)[C@H](Cc2cccs2)C(=O)NO)cc1', 'MET'),
  ('COc1ccc(S(=O)(=O)N(Cc2ccc(OC)c(C)c2C)[C@H](C)C(=O)O)cc1', 'MET'),
  ('COc1ccc(S(=O)(=O)N(Cc2ccc(C)cc2)[C@H](Cc2cccs2)C(=O)NO)cc1', 'MET');

Answer whether the compound COc1ccc(S(=O)(=O)N(Cc2ccc3c(c2)OCO3)[C@H](CCC(=O)OC2CCCCC2)C(=O)O)cc1 has IC50 strictly less than 500 nM
MET

Answer whether the compound COc1ccc(S(=O)(=O)N(CCn2cccc2)[C@H](Cc2cccs2)C(=O)NO)cc1 has IC50 strictly less than 500 nM
NOT MET

Answer whether the compound COc1ccc(S(=O)(=O)N(Cc2ccc(-c3cnns3)cc2)[C@H](Cc2cccs2)C(=O)NO)cc1 has IC50 strictly less than 500 nM
MET

Answer whether the compound COC(=O)c1ccc(CN([C@H](Cc2cccs2)C(=O)NO)S(=O)(=O)c2ccc(OC)cc2)cc1 has IC50 strictly less than 500 nM
MET

Answer whether the compound COc1ccc(S(=O)(=O)N(Cc2ccc(Cl)c(Cl)c2)[C@H](Cc2cccs2)C(=O)NO)cc1 has IC50 strictly less than 500 nM
MET

Answer whether the compound COc1ccc(S(=O)(=O)N(Cc2ccc3c(c2)OCO3)[C@@H](C(=O)O)C2CCN(C(=O)OC(C)(C)C)CC2)cc1 has IC50 strictly less than 500 nM
MET

Answer whether the compound COc1ccc(S(=O)(=O)N(Cc2cc(C(F)(F)F)cc(C(F)(F)F)c2)[C@H](Cc2cccs2)C(=O)NO)cc1 has IC50 strictly less than 500 nM
NOT MET

* * *

target system: Bone morphogenetic protein 1 (Homo sapiens)
Sequence (P13497 whole entry): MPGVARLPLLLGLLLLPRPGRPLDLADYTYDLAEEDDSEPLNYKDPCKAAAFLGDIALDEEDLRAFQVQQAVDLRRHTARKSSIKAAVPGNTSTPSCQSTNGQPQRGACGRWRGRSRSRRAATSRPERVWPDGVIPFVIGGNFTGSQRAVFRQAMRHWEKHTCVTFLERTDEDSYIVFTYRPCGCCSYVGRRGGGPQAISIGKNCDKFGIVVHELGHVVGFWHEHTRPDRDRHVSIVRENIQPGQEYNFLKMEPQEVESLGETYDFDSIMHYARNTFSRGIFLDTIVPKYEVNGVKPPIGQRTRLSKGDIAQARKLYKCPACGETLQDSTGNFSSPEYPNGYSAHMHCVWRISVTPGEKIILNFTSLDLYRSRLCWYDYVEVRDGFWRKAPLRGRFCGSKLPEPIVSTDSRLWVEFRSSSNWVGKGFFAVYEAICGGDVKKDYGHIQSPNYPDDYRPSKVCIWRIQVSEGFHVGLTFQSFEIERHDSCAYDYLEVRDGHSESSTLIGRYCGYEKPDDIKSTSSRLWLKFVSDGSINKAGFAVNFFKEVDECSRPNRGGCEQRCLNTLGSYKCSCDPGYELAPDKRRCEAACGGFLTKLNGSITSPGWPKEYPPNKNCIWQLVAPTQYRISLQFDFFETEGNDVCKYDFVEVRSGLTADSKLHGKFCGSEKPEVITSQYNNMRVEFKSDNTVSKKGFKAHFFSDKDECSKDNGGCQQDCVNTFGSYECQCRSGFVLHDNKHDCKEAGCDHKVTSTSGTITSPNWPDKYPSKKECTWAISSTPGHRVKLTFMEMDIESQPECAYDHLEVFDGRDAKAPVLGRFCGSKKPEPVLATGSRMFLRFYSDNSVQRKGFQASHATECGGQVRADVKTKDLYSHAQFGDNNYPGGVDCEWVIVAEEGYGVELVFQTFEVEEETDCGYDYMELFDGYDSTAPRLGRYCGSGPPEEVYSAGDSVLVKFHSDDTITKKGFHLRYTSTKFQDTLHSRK
assay protocol: Inhibitory activity against Procollagen C-Proteinase (PCP)
readout kind: IC50 (nM)
Give the value in nM but do not write nM after it.

Examples with answers:
INSERT INTO results (compound, display_unit, number) VALUES
  ('COc1ccc(S(=O)(=O)N(Cc2ccc3c(c2)OCO3)[C@@H](C(=O)NO)C(=O)C(N)CNC(=O)OCC2c3ccccc3-c3ccccc32)cc1 (some centres undefined)', 'nM', 0.024),
  ('COc1ccc(S(=O)(=O)N(Cc2ccc(F)c(F)c2)[C@H](C)C(=O)NO)cc1', 'nM', 76),
  ('COc1ccc(S(=O)(=O)N(Cc2ccc3c(c2)OCO3)[C@@H](C(=O)NO)C(=O)C(N)CNC(=O)OCc2ccccc2)cc1 (some centres undefined)', 'nM', 14);

Endpoint output: IC50 of COc1ccc(S(=O)(=O)N(Cc2ccc3c(c2)OCO3)[C@H](Cc2cn(C)cn2)C(=O)NO)cc1 . Value?
50

Endpoint output: IC50 of COc1ccc(S(=O)(=O)N(Cc2ccc(Br)cc2)[C@H](C)C(=O)NO)cc1 . Value?
37

Endpoint output: IC50 of COc1ccc(S(=O)(=O)N(Cc2ccc(C(C)C)cc2)[C@H](C)C(=O)NO)cc1 . Value?
230

Endpoint output: IC50 of COc1ccc(S(=O)(=O)N(Cc2ccc3c(c2)OCO3)[C@H](Cc2cncn2Cc2ccccc2)C(=O)NO)cc1 . Value?
27

Endpoint output: IC50 of COc1ccc(S(=O)(=O)N(Cc2ccc3c(c2)OCO3)[C@H](CCCNC(=O)OC(C)(C)C)C(=O)NO)cc1 . Value?
52

Endpoint output: IC50 of COc1ccc(S(=O)(=O)N(Cc2cc(C(F)(F)F)cc(C(F)(F)F)c2)[C@H](C)C(=O)NO)cc1 . Value?
220

Endpoint output: IC50 of COc1ccc(S(=O)(=O)N(Cc2cccc(Br)c2)[C@H](C)C(=O)NO)cc1 . Value?
93

Endpoint output: IC50 of COc1ccc(S(=O)(=O)N(Cc2ccc(OC)c(C)c2C)[C@H](C)C(=O)NO)cc1 . Value?
220

Endpoint output: IC50 of COc1ccc(S(=O)(=O)N(Cc2cccc(C)c2[N+](=O)[O-])[C@H](C)C(=O)NO)cc1 . Value?
120

Endpoint output: IC50 of COc1ccc(S(=O)(=O)N(CCn2cccc2)[C@H](C)C(=O)NO)cc1 . Value?
170

Endpoint output: IC50 of COc1ccc(S(=O)(=O)N(Cc2ccc(SC)cc2)[C@H](C)C(=O)NO)cc1 . Value?
80

Endpoint output: IC50 of C=CCOC(=O)NCC(N)C(=O)[C@H](C(=O)NO)N(Cc1ccc2c(c1)OCO2)S(=O)(=O)c1ccc(OC)cc1 (some centres undefined) . Value?
23

Endpoint output: IC50 of COc1ccc(S(=O)(=O)N(Cc2ccc(C)c([N+](=O)[O-])c2)[C@H](Cc2cccs2)C(=O)NO)cc1 . Value?
60

Endpoint output: IC50 of COc1ccc(S(=O)(=O)N(Cc2ccc(Cl)c([N+](=O)[O-])c2)[C@H](C)C(=O)NO)cc1 . Value?
30

Endpoint output: IC50 of C=CCOc1ccc2ccc(CN([C@H](C)C(=O)NO)S(=O)(=O)c3ccc(OC)cc3)cc2c1 . Value?
130

Endpoint output: IC50 of COc1ccc(S(=O)(=O)N(Cc2ccc3c(c2)OCO3)[C@H](CSc2ccc(C)cc2)C(=O)NO)cc1 . Value?
45
